Reference for the values: patent US7666890B2

System: Chenopodium album
method notes: Test of herbicidal activities (greenhouse pot method)
Assay type: in vivo
condition context: single dose 300 g ai./h, treated before/after germination, 15 days later, greenhouse pot
quantity measured: Herbicidal activity Chenopodium album (inhibition level)

>>> print(df.to_string())
                                   compound            result
0  Cc1nn(-c2cc3nc(S(=O)(=O)Cc4ccc(Br)cc4)sc3cc2Cl)c(=O)n1C(F)F [Compound 42]  D (50 ≦ D < 60%)
1  Cc1nn(-c2cc3nc(SCc4ccc(Br)cc4F)sc3cc2F)c(=O)n1C(F)F [Compound 22]  D (50 ≦ D < 60%)

* * *

System: Digiatria sanguinalis
method notes: Test of herbicidal activities (greenhouse pot method)
Assay type: in vivo
condition context: single dose 300 g ai./h, treated before/after germination, 15 days later, greenhouse pot
quantity measured: Herbicidal activity Digiatria sanguinalis (inhibition level)

                                    compound         assayed_system             result
 0  Cc1nn(-c2cc3nc(SCc4cccc([N+](=O)[O-])c4)sc3cc2F)c(=O)n1C(F)F  Digiatria sanguinalis   B (80 ≦ B < 90%)
 1  Cc1ccccc1C[S+]([O-])c1nc2cc(-n3nc(C)n(C(F)F)c3=O)c(F)cc2s1 (stereo not shown)  Digiatria sanguinalis   C (60 ≦ C < 80%)
 2  CCOC(=O)CS(=O)(=O)c1nc2cc(-n3nc(C)n(C(F)F)c3=O)c(Cl)cc2s1  Digiatria sanguinalis   B (80 ≦ B < 90%)
 3  C=CCS(=O)(=O)c1nc2cc(-n3nc(C)n(C(F)F)c3=O)c(Cl)cc2s1  Digiatria sanguinalis   C (60 ≦ C < 80%)
 4  CSc1nc2cc(-n3nc(C)n(C(F)F)c3=O)c(Br)cc2s1  Digiatria sanguinalis  A (90 ≦ A ≦ 100%)
 5  Cc1nn(-c2cc3nc(SCc4ccc(Cl)cc4)sc3cc2Cl)c(=O)n1C(F)F  Digiatria sanguinalis   B (80 ≦ B < 90%)
 6  C=CCSc1nc2cc(-n3nc(C)n(C(F)F)c3=O)c(F)cc2s1  Digiatria sanguinalis  A (90 ≦ A ≦ 100%)
 7  CCSc1nc2cc(-n3nc(C)n(C(F)F)c3=O)c(Cl)cc2s1  Digiatria sanguinalis  A (90 ≦ A ≦ 100%)
 8  Cc1nn(-c2cc3nc(SCc4ccc(Cl)nc4)sc3cc2Cl)c(=O)n1C(F)F  Digiatria sanguinalis   B (80 ≦ B < 90%)
 9  Cc1nn(-c2cc3nc(SCc4cccc(Cl)c4)sc3cc2Cl)c(=O)n1C(F)F  Digiatria sanguinalis        E (E < 50%)
10  Cc1nn(-c2cc3nc([S+]([O-])Cc4cccc(Cl)c4)sc3cc2F)c(=O)n1C (stereo not shown)  Digiatria sanguinalis   B (80 ≦ B < 90%)
11  Cc1nn(-c2cc3nc(SCc4c(F)cccc4F)sc3cc2Cl)c(=O)n1C(F)F  Digiatria sanguinalis   B (80 ≦ B < 90%)
12  C=CC[S+]([O-])c1nc2cc(-n3nc(C)n(C(F)F)c3=O)c(Br)cc2s1 (stereo not shown)  Digiatria sanguinalis   B (80 ≦ B < 90%)
13  CCOC(=O)C(C)Sc1nc2cc(-n3nc(C(F)(F)F)n(C(F)F)c3=O)c(Cl)cc2s1 (stereo not shown)  Digiatria sanguinalis        E (E < 50%)
14  Cc1nn(-c2cc3nc(SCc4cccc(F)c4)sc3cc2F)c(=O)n1C(F)F  Digiatria sanguinalis   B (80 ≦ B < 90%)
15  Cc1nn(-c2cc3nc(SCc4cccs4)sc3cc2F)c(=O)n1C(F)F  Digiatria sanguinalis  A (90 ≦ A ≦ 100%)
16  Cc1nn(-c2cc3nc(SCc4cccc(F)c4)sc3cc2Cl)c(=O)n1C(F)F  Digiatria sanguinalis   B (80 ≦ B < 90%)
17      CSc1nc2cc(-n3nc(C)n(C)c3=O)c(F)cc2s1  Digiatria sanguinalis  A (90 ≦ A ≦ 100%)
18  Cc1ccc([N+](=O)[O-])c(C[S+]([O-])c2nc3cc(-n4nc(C)n(C(F)F)c4=O)c(F)cc3s2)c1 (stereo not shown)  Digiatria sanguinalis   D (50 ≦ D < 60%)
19  CCCC[S+]([O-])c1nc2cc(-n3nc(C)n(C(F)F)c3=O)c(F)cc2s1 (stereo not shown)  Digiatria sanguinalis   B (80 ≦ B < 90%)
20  CCOC(=O)C(C)Sc1nc2cc(-n3nc(C)n(C(F)F)c3=O)c(F)cc2s1 (stereo not shown)  Digiatria sanguinalis  A (90 ≦ A ≦ 100%)
21  CCOCCSc1nc2cc(-n3nc(C)n(C(F)F)c3=O)c(Cl)cc2s1  Digiatria sanguinalis  A (90 ≦ A ≦ 100%)
22  CCCCCCS(=O)(=O)c1nc2cc(-n3nc(C)n(C(F)F)c3=O)c(Cl)cc2s1  Digiatria sanguinalis  A (90 ≦ A ≦ 100%)
23  COc1cccc(CSc2nc3cc(-n4nc(C)n(C(F)F)c4=O)c(F)cc3s2)c1  Digiatria sanguinalis        E (E < 50%)
24  CCCCCCS(=O)(=O)c1nc2cc(-n3nc(C)n(C(F)F)c3=O)c(F)cc2s1  Digiatria sanguinalis   B (80 ≦ B < 90%)
25  CCCCCCSc1nc2cc(-n3nc(C)n(C(F)F)c3=O)c(Cl)cc2s1  Digiatria sanguinalis  A (90 ≦ A ≦ 100%)
26  CCOC(=O)C(C)[S+]([O-])c1nc2cc(-n3nc(C)n(C(F)F)c3=O)c(Br)cc2s1 (stereo not shown)  Digiatria sanguinalis   C (60 ≦ C < 80%)
27  CCOC(=O)C(C)S(=O)(=O)c1nc2cc(-n3nc(C)n(C(F)F)c3=O)c(F)cc2s1 (stereo not shown)  Digiatria sanguinalis  A (90 ≦ A ≦ 100%)
28  CC[S+]([O-])c1nc2cc(-n3nc(C)n(C(F)F)c3=O)c(Cl)cc2s1 (stereo not shown)  Digiatria sanguinalis   B (80 ≦ B < 90%)
29  CCCSc1nc2cc(-n3nc(C)n(C(F)F)c3=O)c(Br)cc2s1  Digiatria sanguinalis   D (50 ≦ D < 60%)
30  Cc1nn(-c2cc3nc(SCc4ccc(Br)cc4)sc3cc2Cl)c(=O)n1C(F)F  Digiatria sanguinalis        E (E < 50%)
31  Cc1nn(-c2cc3nc(SCn4cnc5ccccc5c4=O)sc3cc2F)c(=O)n1C(F)F  Digiatria sanguinalis   B (80 ≦ B < 90%)
32  CCOC(=O)CSc1nc2cc(-n3nc(C)n(C(F)F)c3=O)c(Br)cc2s1  Digiatria sanguinalis  A (90 ≦ A ≦ 100%)
33  CCCCS(=O)(=O)c1nc2cc(-n3nc(C)n(C(F)F)c3=O)c(Cl)cc2s1  Digiatria sanguinalis   B (80 ≦ B < 90%)

* * *

Tested on: Digiatria sanguinalis
method notes: Test of herbicidal activities (greenhouse pot method)
Type: in vivo
condition context: single dose 300 g ai./h, treated before/after germination, 15 days later, greenhouse pot
quantity measured: Herbicidal activity Digiatria sanguinalis (inhibition level)

                                    molecule         assayed_system             result
 0  Cc1ccc(C[S+]([O-])c2nc3cc(-n4nc(C)n(C(F)F)c4=O)c(F)cc3s2)cc1 (stereo not drawn)  Digiatria sanguinalis   C (60 ≦ C < 80%)
 1  CCC[S+]([O-])c1nc2cc(-n3nc(C)n(C(F)F)c3=O)c(Br)cc2s1 (stereo not drawn)  Digiatria sanguinalis   B (80 ≦ B < 90%)
 2  Cc1nn(-c2cc3nc(SCc4ccccc4Cl)sc3cc2F)c(=O)n1C(F)F  Digiatria sanguinalis   B (80 ≦ B < 90%)
 3  Cc1nn(-c2cc3nc(SCc4ccccc4F)sc3cc2F)c(=O)n1C(F)F  Digiatria sanguinalis  A (90 ≦ A ≦ 100%)
 4  CCOC(=O)C(C)S(=O)(=O)c1nc2cc(-n3nc(C)n(C(F)F)c3=O)c(Br)cc2s1 (stereo not drawn)  Digiatria sanguinalis   C (60 ≦ C < 80%)
 5  CCCCCCSc1nc2cc(-n3nc(C)n(C(F)F)c3=O)c(F)cc2s1  Digiatria sanguinalis   D (50 ≦ D < 60%)
 6  CSc1nc2cc(-n3nc(C)n(C(F)F)c3=O)c(Cl)cc2s1  Digiatria sanguinalis   B (80 ≦ B < 90%)
 7  C=CCSc1nc2cc(-n3nc(C)n(C(F)F)c3=O)c(Br)cc2s1  Digiatria sanguinalis  A (90 ≦ A ≦ 100%)
 8  Cc1ccccc1CSc1nc2cc(-n3nc(C)n(C(F)F)c3=O)c(F)cc2s1  Digiatria sanguinalis   C (60 ≦ C < 80%)
 9  Cc1nn(-c2cc3nc(SCc4ccc(F)cc4F)sc3cc2F)c(=O)n1C(F)F  Digiatria sanguinalis   B (80 ≦ B < 90%)
10  CCOC(=O)C(C)[S+]([O-])c1nc2cc(-n3nc(C)n(C(F)F)c3=O)c(F)cc2s1 (stereo not drawn)  Digiatria sanguinalis   C (60 ≦ C < 80%)
11  CCCSc1nc2cc(-n3nc(C(F)(F)F)n(C(F)F)c3=O)c(Br)cc2s1  Digiatria sanguinalis  A (90 ≦ A ≦ 100%)
12  CCOC(=O)C(C)S(=O)(=O)c1nc2cc(-n3nc(C)n(C(F)F)c3=O)c(Cl)cc2s1 (stereo not drawn)  Digiatria sanguinalis  A (90 ≦ A ≦ 100%)
13  Cc1ccc([N+](=O)[O-])c(CSc2nc3cc(-n4nc(C)n(C(F)F)c4=O)c(F)cc3s2)c1  Digiatria sanguinalis   C (60 ≦ C < 80%)
14  Cc1nn(-c2cc3nc(S(=O)(=O)Cc4cccc(Cl)c4)sc3cc2F)c(=O)n1C(F)F  Digiatria sanguinalis   B (80 ≦ B < 90%)
15  CCS(=O)(=O)c1nc2cc(-n3nc(C)n(C(F)F)c3=O)c(F)cc2s1  Digiatria sanguinalis   D (50 ≦ D < 60%)
16    CCCSc1nc2cc(-n3nc(C)n(C)c3=O)c(F)cc2s1  Digiatria sanguinalis  A (90 ≦ A ≦ 100%)
17  Cc1nn(-c2cc3nc(S(=O)(=O)Cc4c(F)cccc4F)sc3cc2Cl)c(=O)n1C(F)F  Digiatria sanguinalis   D (50 ≦ D < 60%)
18  C=CCS(=O)(=O)c1nc2cc(-n3nc(C)n(C(F)F)c3=O)c(F)cc2s1  Digiatria sanguinalis   B (80 ≦ B < 90%)
19  CCCCSc1nc2cc(-n3nc(C)n(C(F)F)c3=O)c(Cl)cc2s1  Digiatria sanguinalis   C (60 ≦ C < 80%)
20  Cc1nn(-c2cc3nc(S(=O)(=O)Cc4cccc(F)c4)sc3cc2Cl)c(=O)n1C(F)F  Digiatria sanguinalis   C (60 ≦ C < 80%)
21  Cc1nn(-c2cc3nc(SCc4ccc(F)cc4F)sc3cc2Cl)c(=O)n1C(F)F  Digiatria sanguinalis   B (80 ≦ B < 90%)
22  Cc1nn(-c2cc3nc(SCc4ccc(Br)cc4F)sc3cc2F)c(=O)n1C(F)F  Digiatria sanguinalis   C (60 ≦ C < 80%)
23  Cc1ccc([N+](=O)[O-])c(CS(=O)(=O)c2nc3cc(-n4nc(C)n(C(F)F)c4=O)c(F)cc3s2)c1  Digiatria sanguinalis   B (80 ≦ B < 90%)
24  Cc1nn(-c2cc3nc(SCc4ccc(F)cc4)sc3cc2Br)c(=O)n1C(F)F  Digiatria sanguinalis   D (50 ≦ D < 60%)
25  Cc1ccc(CSc2nc3cc(-n4nc(C)n(C(F)F)c4=O)c(F)cc3s2)cc1  Digiatria sanguinalis   C (60 ≦ C < 80%)
26  Cc1nn(-c2cc3nc([S+](C)[O-])sc3cc2F)c(=O)n1C(F)F (stereo not drawn)  Digiatria sanguinalis   C (60 ≦ C < 80%)
27  CCCCSc1nc2cc(-n3nc(C)n(C(F)F)c3=O)c(F)cc2s1  Digiatria sanguinalis  A (90 ≦ A ≦ 100%)
28  Cc1nn(-c2cc3nc(S(=O)(=O)Cc4ccc(F)cc4F)sc3cc2F)c(=O)n1C(F)F  Digiatria sanguinalis   C (60 ≦ C < 80%)
29  Cc1nn(-c2cc3nc(SCc4ccc(F)cc4)sc3cc2F)c(=O)n1C(F)F  Digiatria sanguinalis   C (60 ≦ C < 80%)
30  Cc1nn(-c2cc3nc(SCc4ccccc4)sc3cc2F)c(=O)n1C  Digiatria sanguinalis   B (80 ≦ B < 90%)
31  Cc1nn(-c2cc3nc(S(=O)(=O)Cc4cccc(Cl)c4)sc3cc2F)c(=O)n1C  Digiatria sanguinalis   C (60 ≦ C < 80%)
32  Cc1nn(-c2cc3nc([S+]([O-])Cc4cccc(Cl)c4)sc3cc2Cl)c(=O)n1C(F)F (stereo not drawn)  Digiatria sanguinalis   B (80 ≦ B < 90%)
